SYSTEM: T1, cynomolgus monkey PCSK9 (cynomolgus monkey, UniProt A8T662 31-692 (Macaca nemestrina entry), limits assumed)
T1 construct: also called Cyno PCSK9; cynoPCSK9
T1 sequence (A8T662 31-692 limits assumed): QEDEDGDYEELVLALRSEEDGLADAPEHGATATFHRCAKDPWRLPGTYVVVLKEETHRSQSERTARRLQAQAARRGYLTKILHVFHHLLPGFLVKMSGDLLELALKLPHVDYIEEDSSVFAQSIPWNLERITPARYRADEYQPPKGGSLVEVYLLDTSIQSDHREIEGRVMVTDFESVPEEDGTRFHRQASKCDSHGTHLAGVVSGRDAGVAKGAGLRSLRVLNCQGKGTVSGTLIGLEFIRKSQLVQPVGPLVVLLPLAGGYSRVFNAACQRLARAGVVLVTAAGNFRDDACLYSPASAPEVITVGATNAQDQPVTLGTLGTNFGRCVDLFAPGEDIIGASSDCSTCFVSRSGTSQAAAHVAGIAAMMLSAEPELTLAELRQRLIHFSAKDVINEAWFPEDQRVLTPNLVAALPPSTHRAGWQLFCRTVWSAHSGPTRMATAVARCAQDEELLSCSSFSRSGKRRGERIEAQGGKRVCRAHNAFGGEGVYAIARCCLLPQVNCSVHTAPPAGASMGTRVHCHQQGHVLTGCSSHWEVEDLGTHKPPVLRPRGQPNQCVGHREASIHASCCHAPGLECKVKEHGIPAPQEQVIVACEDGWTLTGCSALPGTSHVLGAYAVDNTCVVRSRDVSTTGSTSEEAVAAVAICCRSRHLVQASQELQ
EXPERIMENT SUMMARY: ProteOn SPR, captured antibody, pH 5.8;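 also: antibodies captured on a GLC chip coated with anti-human Fc, rate constants from a 1:1 Langmuir fit of the sensorgrams, Kd derived from the fitted rates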
Form field: Kd (one value per entry).

BINDER: CL-148219 (antibody, V domains shown, NLT motif in heavy chain framework 3 confirmed N-glycosylated by mass spectrometry, Human antibody, captured through anti-human Fc in the SPR assay) VH: QVHLQESGPGLVKPSETLSLTCTVSGGSISSYYWSWIRQYPGKGLEWIGYISYSGSSNYNPSLKRRVTISRDTSKNQFSLNLTSVIAADTAVYYCARNLMIRGAYGMDVWGQGTTVTVSS VL: DTVMTQSPLSLPVTPGEPASISCRSSQSLLHSNGYNYLDWYLQKAGQSPQLLIYLGSNRASGVPDRFSGSVSGTDFTLKISRVEAEDVGIYYCMQALQTPFTFGPGTKVDIK
Kd / nM: 0.345
//
BINDER: CL-274698 (antibody, V domains shown, Human antibody with a kappa light chain, derived from a PCSK9 knockout mouse) VH: QVQLQESGPGLVKPSGTLSLTCAVSGGSISSSKWWSWVRQPPGKGLEWIGETHYSGSTNYNPSLKSRVTISVDKSKNQFSLKLRSVTAADTAVYYCARVGATENFWGQGTLVTVSS VL: EIVLTQSPATLSLSPGERATLSCRASQSVFRYLAWYQQKPGQAPRLLIYDASTRATDIPARFSGSGSGTDFTLTISSLEPEDFAVYYCQQRSNWPPTFGQGTKVEIK
Kd / nM: 0.0297
//
BINDER: CL-148219 QLT mutant (antibody, V domains shown) VH: QVHLQESGPGLVKPSETLSLTCTVSGGSISSYYWSWIRQYPGKGLEWIGYISYSGSSNYNPSLKRRVTISRDTSKNQFSLQLTSVIAADTAVYYCARNLMIRGAYGMDVWGQGTTVTVSS VL: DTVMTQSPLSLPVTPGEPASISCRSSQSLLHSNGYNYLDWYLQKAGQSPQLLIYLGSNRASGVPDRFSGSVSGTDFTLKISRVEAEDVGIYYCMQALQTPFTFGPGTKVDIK
Kd / nM: 0.568
//
BINDER: CL-148489 (antibody, V domains shown, Human antibody with a kappa light chain) VH: EVQLVESGGGLVQPGRSLRLSCTASGFTFADYVMHWVRQTPGKGLEWVSGISWNSYSINYADSVKGRFTISRDNAQNSLYLQMNSLRAEDTALYFCAKDITYDLLTGYNYNYGLDVWGQGTTVTVSS VL: DIVMTQTPLSLSVTPGQPASISCRSSQSLLHSDGKTYLYWYLQKPGQPPQLLIYEVSNRFSGVPDRFSGSGSGTDFTLKISRVEAEDVGLYYCMQSIQLPLTFGGGTKVEIK
Kd / nM: 0.0924
//
BINDER: CL-274711 (antibody, V domains shown, Human antibody with a kappa light chain, generated by immunising a PCSK9 knockout mouse) VH: QVQLQESGPGLVKPSQTLSLTCTVSGGSISSGGYYWSWIRQHPGKGLEWIGHIFYSGSTYYNPSLKSRVTISVDTSKNQFSLKLNSVTAADTAVYYCASEGGYYDIPDVWGQGTTVTVSS VL: EIVLTQSPATLSLSPGERATLSCRASQSVSNYLAWYQQKPGQAPRLLISDASNRATGIPARFSGSGSGTDFTLTISSLEPEDFAIYYCQQRSNWPLTFGGGTKVEIK
Kd / nM: 0.164
